Tested on: rodent lifetime carcinogenesis bioassay, tumor incidence TD50
test.description: carcinogenic potency in animals, long-term in vivo studies, CPDB compilation (AID 1745844)
condition.label: mouse; strain Swiss; females; inhaled; site: lung; lesion: carcinoma; dosed 78 weeks; study length 104 weeks
measure.name: TD50

So what's the measured TD50 for this one? C=CCl
143 mg/kg/day

* * *

Test system: rodent lifetime carcinogenesis bioassay, tumor incidence TD50
test.description: carcinogenic potency in animals, long-term in vivo studies, CPDB compilation (AID 1745844)
condition.label: mouse; strain B6C3F1; males; in feed; site: thyroid gland; lesion: follicular-cell adenoma + papillary cystadenoma, NOS + papillary adenoma; dosed 103 weeks; study length 105 weeks
measure.name: TD50

Look at this molecule and give its reported TD50. Nc1cccc2c(N)cccc12
276 mg/kg/day
